Please respond with reported Top (MFI) for every item in the list.
- STUDY SYSTEM: T1, human LIV-1 (human, UniProt Q13433 29-755)
- T1 construct: whole, on cells; also called H-LIV1
- T1 sequence (looked up): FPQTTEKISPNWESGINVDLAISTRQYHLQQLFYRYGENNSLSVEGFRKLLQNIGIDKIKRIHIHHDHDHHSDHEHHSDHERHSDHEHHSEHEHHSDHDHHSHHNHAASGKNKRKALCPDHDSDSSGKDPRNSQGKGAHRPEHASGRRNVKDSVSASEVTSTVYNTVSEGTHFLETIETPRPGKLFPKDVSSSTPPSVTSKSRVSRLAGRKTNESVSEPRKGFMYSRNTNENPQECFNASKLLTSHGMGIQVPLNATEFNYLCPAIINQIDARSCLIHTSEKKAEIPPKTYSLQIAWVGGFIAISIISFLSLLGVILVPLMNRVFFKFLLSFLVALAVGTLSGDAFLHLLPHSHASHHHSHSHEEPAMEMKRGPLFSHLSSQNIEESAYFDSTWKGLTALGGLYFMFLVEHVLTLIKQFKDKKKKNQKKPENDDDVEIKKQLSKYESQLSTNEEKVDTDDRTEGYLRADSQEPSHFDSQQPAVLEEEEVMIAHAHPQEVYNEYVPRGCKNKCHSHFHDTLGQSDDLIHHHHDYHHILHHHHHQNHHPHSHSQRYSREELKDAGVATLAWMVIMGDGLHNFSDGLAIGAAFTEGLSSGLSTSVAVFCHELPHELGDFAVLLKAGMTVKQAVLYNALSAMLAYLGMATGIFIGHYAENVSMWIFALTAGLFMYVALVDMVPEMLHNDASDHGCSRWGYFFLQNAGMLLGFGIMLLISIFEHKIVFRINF
- EXPERIMENTAL DETAILS: FACS, HEK293/H_LIV-1 cells
Answer with a number only, understood to be in MFI.

Value of measured Top (MFI) for the entry 124H4D11.p2.z12 (antibody, V domains shown) VH: QVPLVQSGAEVVKPGASVKLSCKASGFNIKDYYMHWVKQAPGQGLEWIGWIDPENDDTEYDPKFQGRATMTADTSTSTAYLELSSLRSEDTAVYYCNARYYAFDYWGQGTTVTVSS VL: DVLMTQSPSSLSASVGDRVTITCRSSQSIVHSNANTYLEWYLQKPGKSPKLLIYKVSNRFSGVPDRFSGSGSGTEFTLTISSVQPEDFAVYYCFQGSQVPPTFGQGTRLEIK : 15800

Value of measured Top (MFI) for the entry 5D6B10.Z1 (antibody, V domains shown) VH: QVQLVESGGGVVQPGRSLRLSCAVSGFSLTTYGIHWVRQAPGKGLEWLAVIWTGGTTDYNAAFISRFTISKDNSKSTLYLQMNSLRAEDTAVYYCARGPSSYWGQGTLVTVSS VL: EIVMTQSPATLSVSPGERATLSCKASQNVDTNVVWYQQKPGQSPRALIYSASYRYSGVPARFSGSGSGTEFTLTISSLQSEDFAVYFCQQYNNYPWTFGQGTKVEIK : 49800

Value of measured Top (MFI) for the entry 5D6B10.Z3 (antibody, V domains shown) VH: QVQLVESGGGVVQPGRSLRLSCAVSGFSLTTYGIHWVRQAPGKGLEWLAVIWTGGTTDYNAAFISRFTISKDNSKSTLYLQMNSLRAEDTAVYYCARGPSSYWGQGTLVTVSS VL: DIVMTQSPATLSVSPGERVTVSCKASQNVDTNVVWYQQKPGQSPRALIHSASYRYSGVPDRFSGSGSGTDFTLTISSVQSEDFAVYFCQQYNNYPWTFGGGTKLEIK : 51200

Value of measured Top (MFI) for the entry 124H4D11.p2.z7 (antibody, V domains shown) VH: QVPLVQSGAEVVKPGASVKVSCKASGFNIKDYYMHWVRQAPGQGLEWIGWIDPENDDTEYDPKFQGRATMTADTSTSTAYMELSSLRSEDTAVYYCNARYYAFDYWGQGTTVTVSS VL: DVLMTQSPSSLSASVGDRVTITCRSSQSIVHSNANTYLEWYLQKPGKSPKLLIYKVSNRFSGVPDRFSGSGSGTEFTLTISSVQPEDFAVYYCFQGSQVPPTFGQGTRLEIK : 15800

Value of measured Top (MFI) for the entry 5D6B10.Z9 (antibody, V domains shown) VH: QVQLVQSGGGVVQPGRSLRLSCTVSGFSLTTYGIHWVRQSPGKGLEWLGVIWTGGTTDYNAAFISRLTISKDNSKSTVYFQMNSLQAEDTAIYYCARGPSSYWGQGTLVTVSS VL: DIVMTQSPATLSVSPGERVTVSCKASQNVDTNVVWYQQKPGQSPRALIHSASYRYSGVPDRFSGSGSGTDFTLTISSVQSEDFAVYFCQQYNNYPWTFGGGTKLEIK : 52600

Value of measured Top (MFI) for the entry 5D6B10.Z8 (antibody, V domains shown) VH: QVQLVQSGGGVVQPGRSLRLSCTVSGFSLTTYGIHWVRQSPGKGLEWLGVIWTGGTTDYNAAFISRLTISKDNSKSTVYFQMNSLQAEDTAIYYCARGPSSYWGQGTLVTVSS VL: EIVMTQSPATLSVSPGERATVSCKASQNVDTNVVWYQQKPGQSPRALIHSASYRYSGVPDRFSGSGSGTDFTLTISSLQSEDFAVYFCQQYNNYPWTFGQGTKVEIK : 45700

Value of measured Top (MFI) for the entry 5D6B10.Z7 (antibody, V domains shown) VH: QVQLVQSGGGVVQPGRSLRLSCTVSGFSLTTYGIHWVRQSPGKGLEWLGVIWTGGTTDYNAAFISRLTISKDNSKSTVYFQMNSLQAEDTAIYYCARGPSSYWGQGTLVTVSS VL: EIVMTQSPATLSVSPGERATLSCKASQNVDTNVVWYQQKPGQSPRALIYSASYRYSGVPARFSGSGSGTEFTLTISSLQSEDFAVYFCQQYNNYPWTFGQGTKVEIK : 50700

Value of measured Top (MFI) for the entry 124H4D11.p2.z15 (antibody, V domains shown) VH: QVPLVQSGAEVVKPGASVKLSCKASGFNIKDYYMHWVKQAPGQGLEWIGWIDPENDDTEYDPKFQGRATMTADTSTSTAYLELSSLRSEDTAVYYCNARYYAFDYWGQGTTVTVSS VL: DVLMTQSPLSLPVTLGQPASISCRSSQSIVHSNANTYLEWYLQRPGQSPKLLIYKVSNRFSGVPDRFSGSGSGTEFTLKISRVEAEDLGVYYCFQGSQVPPTFGGGTKLEIK : 16800

Value of measured Top (MFI) for the entry 5D6B10.Z6 (antibody, V domains shown) VH: QVQLVESGGGVVQPGRSLRLSCTVSGFSLTTYGIHWVRQSPGKGLEWLGVIWTGGTTDYNAAFISRLTISKDNSKSTLYFQMNSLRAEDTAVYYCARGPSSYWGQGTLVTVSS VL: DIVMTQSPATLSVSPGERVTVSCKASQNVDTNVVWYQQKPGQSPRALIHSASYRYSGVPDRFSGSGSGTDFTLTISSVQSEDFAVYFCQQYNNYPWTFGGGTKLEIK : 52700

Value of measured Top (MFI) for the entry 5D6B10.Z10 (antibody, V domains shown) VH: QVQLQESGPGLVKPSGTLSLTCAVSGFSLTTYGIHWVRQSPGKGLEWLGVIWTGGTTDYNAAFISRLTISKDKSKNQVSLKLSSVTAADTAVYYCARGPSSYWGQGTLVTVSS VL: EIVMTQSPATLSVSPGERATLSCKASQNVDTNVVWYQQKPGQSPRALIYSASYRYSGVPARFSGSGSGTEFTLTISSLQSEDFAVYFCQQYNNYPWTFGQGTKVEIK : 63800
